Kindly state pIC50 for each of the entries shown.
Test system: Plasmodium falciparum
Experiment: MMV: P. falciparum NF54 functionally mature Stage V gametocytes were incubated for 24 hr in the presence of the test compounds. Gamete formation was then triggered by addition of 2uM xantheurenic acid and temperature decrease to ~20C. Female gamete formation was recorded 24 hr later by automated microscopy detection of surface labelling of female gametes with a Cy3-conjugated antibody reactive to Pfs25. All compounds were tested in 4 independent experiments and data presented here is the mean. IC50s determined for selected compounds.
Type: functional, organism-based
Conditions: NF54, 24 h
Answers are plain numbers, as −log10 of the molar value.

{"columns": ["Compound", "Tested Target", "pIC50"],
 "data": [
  ["COc1ccc(C2c3ccc4ccccc4c3Oc3ncn(CCCN(C)C)c(=N)c32)cc1 (stereo not given)", "Plasmodium falciparum", 6.33]
]}

Now for another entry.
Which pIC50 value belongs to CN(C)c1ccc(C(O)(c2ccc(N(C)C)cc2)c2ccc(N(C)C)cc2)cc1 ?
6.35

====

System: Plasmodium falciparum
Assay: MMV: P. falciparum NF54 functionally mature Stage V gametocytes were incubated for 24 hr in the presence of the test compounds. Gamete formation was then triggered by addition of 2uM xantheurenic acid and temperature decrease to ~20C. Male gamete exflagellation was recorded and analysed by automated microscopy after 20 min. All compounds were tested in 4 independent experiments and data presented here is the mean.
Format: functional
Parameters: concentration or dose not given beside the values
Measured Metric: inhibition (%)
Numbers only, in %.

Recorded inhibition, per entry:
{"columns": ["Compound", "inhibition / %"],
 "data": [
  ["COc1ccc(C(=O)NC(c2ccccc2Cl)c2cc(Cl)c3cccnc3c2O)cc1 (stereo unspecified)", 2.11],
  ["O=C(CCc1ccccc1)c1ccccc1OCC(O)CN1CCCCC1 (stereo unspecified)", 22.9],
  ["COc1ccc(C=C2SC(=N)N(c3ccccc3OC)C2=O)cc1", 77.3],
  ["Cc1ccc(Nc2nc(-c3ccccn3)cs2)cc1", 16.3],
  ["Cc1ccc2c(C)nc(Nc3nc(C)cc(-c4ccccc4)n3)nc2c1", -11.5]
]}

// next entry
Can you look up the measured inhibition of Nc1ccn([C@@H]2O[C@H](CO)[C@@H](O)[C@H]2O)c(=O)n1 [CYTIDINE] for me?
-18.8

====

Assignment: determine reported inhibition for the given molecules.
Tested on: Plasmodium falciparum
Assay: MMV: P. falciparum NF54 functionally mature Stage V gametocytes were incubated for 24 hr in the presence of the test compounds. Gamete formation was then triggered by addition of 2uM xantheurenic acid and temperature decrease to ~20C. Male gamete exflagellation was recorded and analysed by automated microscopy after 20 min. All compounds were tested in 4 independent experiments and data presented here is the mean.
Assay type: functional
Parameters: concentration or dose not given beside the values
Numbers only, in %.

Take a look at these entries with their results.
{"columns": ["Molecule", "Tested Target", "inhibition (%)"],
 "data": [
  ["CCCCc1c(CCC)c(=N)c2ccccc2n1C.I", "Plasmodium falciparum", -57],
  ["N=c1n(CCN2CCCCC2)c2ccccc2n1CC(=O)c1ccc(Cl)c(Cl)c1", "Plasmodium falciparum", -14.4],
  ["COc1ccc(C2Sc3ccccc3N=C3C2=C(O)c2ccccc23)cc1 (stereo unspecified)", "Plasmodium falciparum", 32.2],
  ["COc1ccc(CNC(=O)c2cc3c(=O)n4ccccc4nc3n(CCc3ccccc3)c2=N)cc1", "Plasmodium falciparum", -25],
  ["CCOc1ccc(/C=C/c2nc(=O)c3ccccc3o2)cc1", "Plasmodium falciparum", 23.7],
  ["C=CCc1c(C)nc2ccccc2c1O", "Plasmodium falciparum", 52.3],
  ["Cc1ccc(F)cc1NC(=O)c1cc(Cl)ccc1Nc1ccccc1", "Plasmodium falciparum", 43.2],
  ["Brc1ccc(Nc2nc3ccccc3nc2Nc2ccc(Br)cc2)cc1", "Plasmodium falciparum", 18.1],
  ["Cc1cc(NC(=O)C2c3ccccc3C(=O)N(CC(C)C)C2c2cccs2)no1 (stereo unspecified)", "Plasmodium falciparum", 52.5],
  ["OC(CNC1CCCCC1)Cn1c2ccc(I)cc2c2cc(I)ccc21 (stereo unspecified)", "Plasmodium falciparum", -12.3]
]}

Now turn to the next molecule.
Value lookup for inhibition; key = c1ccc(-c2ccc(-c3nc4ccccc4[nH]3)cc2)cc1
15.6

====

Tested on: Plasmodium falciparum
Test: MMV: P. falciparum NF54 functionally mature Stage V gametocytes were incubated for 24 hr in the presence of the test compounds. Gamete formation was then triggered by addition of 2uM xantheurenic acid and temperature decrease to ~20C. Male gamete exflagellation was recorded and analysed by automated microscopy after 20 min. All compounds were tested in 4 independent experiments and data presented here is the mean.
Type: functional
Set-up: concentration or dose not given beside the values
Rule: inhibition under 20% gives not met, otherwise met.

Use these answered entries as a reference point.
{"columns": ["Compound", "Discrete Label"],
 "data": [
  ["O=C(NCC1Cc2cccc(-c3ccncc3)c2O1)c1csc2c1CCCC2 (stereo not drawn)", "met"],
  ["Cc1cccc(-n2ncc3c(O)nc(-n4nc(C)cc4NC(=O)c4cc5ccccc5o4)nc32)c1", "met"],
  ["CCCCN(CCCC)S(=O)(=O)c1ccc(NC(=O)c2ccco2)cc1", "met"],
  ["CCOc1ccc(C2N(C)c3ccccc3N2C)cc1", "not met"],
  ["COc1ccc(-c2nonc2NC(=O)c2cccc(Cl)c2)cc1OC", "not met"],
  ["CC1CN(C(=O)c2sc3ccccc3c2Cl)CC(C)O1 (stereo not drawn)", "met"]
]}

Dear colleague, could you confirm whether COc1ccccc1CNC(=O)CCn1c(=O)[nH]c2ccccc2c1=O has inhibition at or above 20%?
not met

Please answer likewise for O=C(NCC(c1ccsc1)N1CCCCCC1)c1ccc(C(F)(F)F)cc1 (stereo not drawn)
not met

Let us now turn to Oc1c(C(Nc2ccccn2)c2cccc(Oc3ccccc3)c2)ccc2cccnc12 (stereo not drawn)
not met

Same thing, different compound: Cc1ccc(NC(=O)Nc2cccc(Cl)c2)cc1F
not met

Now this one: Clc1ccc2c(N3CCCC3)ccnc2c1
met

Next compound up: CC(C)(C)c1ccc(C(=O)Nc2nc3ccccc3s2)cc1
met

// same read-out, input: Cc1ccc2cc3c(N)c4c(C)ccc(C)c4nc3nc2c1
not met

Param item: CCN(CC)CCNc1ccnc2cc(Cl)ccc12
not met

Can you handle CN1CCN(c2ncnc3c2[nH]c2ccc(Cl)cc23)CC1 next?
not met

Again, but for CC(=O)NCCc1nc2ccccc2n1Cc1ccc(C(C)C)cc1
not met

And for Cc1ccc(Cn2c(N3CCC(C(=O)NCc4cccs4)CC3)nc3ccccc32)cc1 ?
not met

For CCOC(=O)c1c(C)n(-c2ccccc2)c2ccc(OC(=O)c3cc(OC)c(OC)c(OC)c3)cc12 then?
not met

Now give it for CN(C)c1ccc(C=Cc2nc(=O)c3ccccc3o2)cc1 too.
not met

Lookup COc1ccc(-c2nc(NC(=O)CS(=O)(=O)c3ccc(F)cc3)sc2C)cc1
not met

====

Test system: Plasmodium falciparum
Experiment: MMV: P. falciparum NF54 functionally mature Stage V gametocytes were incubated for 24 hr in the presence of the test compounds. Gamete formation was then triggered by addition of 2uM xantheurenic acid and temperature decrease to ~20C. Male gamete exflagellation was recorded and analysed by automated microscopy after 20 min. All compounds were tested in 4 independent experiments and data presented here is the mean.
Format: functional
Set-up: concentration or dose not given beside the values
Measured Metric: inhibition (%)
Answers are plain numbers, in %.

Completed entries (count: 4):
{"columns": ["Compound", "inhibition, %"],
 "data": [
  ["CCC(c1ccccc1)c1nn2c(-c3cccs3)nnc2s1 (stereo not given)", 1.43],
  ["CCOC(=O)c1cnc2c(C)cc(C)cc2c1Nc1ccc(OC)c(OC)c1", 25.9],
  ["COc1ccc(C2=C(c3ccc(OC)cc3)C3(c4ccccc4)C(=O)C2(c2ccccc2)C2C(=O)N(c4ccc(C)cc4)C(=O)C23)cc1 (stereo not given)", -9],
  ["CN1CCN(c2nc(Nc3ccc(O)cc3)nc3ccccc23)CC1.Cl", 2]
]}

Short answer please: inhibition, Plasmodium falciparum, entry O=C(NC1CCCCC1)C(c1cccs1)N(CCc1ccccc1)C(=O)c1ccco1 (stereo not given)
6.52

====

Tested on: Plasmodium falciparum
Assay: MMV: P. falciparum NF54 functionally mature Stage V gametocytes were incubated for 24 hr in the presence of the test compounds. Gamete formation was then triggered by addition of 2uM xantheurenic acid and temperature decrease to ~20C. Male gamete exflagellation was recorded and analysed by automated microscopy after 20 min. All compounds were tested in 4 independent experiments and data presented here is the mean.
Type: functional
Design: concentration or dose not given beside the values
Measured Metric: inhibition
Please provide the amount together with its unit, number first.

{"columns": ["Compound", "Tested Target", "Measured Metric", "Reading"],
 "data": [
  ["CCOc1cccc(C(=O)Nc2ccc(-c3nc4ccccc4[nH]3)cc2)c1", "Plasmodium falciparum", "inhibition", "32.1%"],
  ["CCn1c(CN2CCN(Cc3ccccc3)CC2)nc2cc(NC(=O)c3cccs3)ccc21", "Plasmodium falciparum", "inhibition", "67.4%"],
  ["CC(C)(C)c1ccc(O)c(CNC2CCCCC2)c1", "Plasmodium falciparum", "inhibition", "-29.4%"],
  ["COc1ccc(N2CCN(C(CNC(=O)C3CCCCC3)c3ccc4c(c3)OCO4)CC2)cc1 (stereo unspecified)", "Plasmodium falciparum", "inhibition", "29.7%"],
  ["CN(C)c1ccc(N=Cc2ccc(N3CCOCC3)cc2)cc1", "Plasmodium falciparum", "inhibition", "34.2%"],
  ["COc1cccc(C2(C)Nc3ccccc3-c3nc4ccccc4n32)c1 (stereo unspecified)", "Plasmodium falciparum", "inhibition", "-12.6%"],
  ["CN1CCN(c2ccc(Nc3c4ccccc4nc4ccccc34)cc2)CC1", "Plasmodium falciparum", "inhibition", "56.4%"],
  ["OCCNc1nc(Nc2ccc(Cl)c(Cl)c2)nc2ccccc12", "Plasmodium falciparum", "inhibition", "-35.4%"]
]}

For each of the compounds below, note its inhibition.
1. COc1ccc(-c2cc3c(nn2)-c2ccccc2C3=O)cc1
2. CCC1(C)CC(CCNCc2ccccc2O)(c2ccc(C)cc2)CCO1 (stereo unspecified)
3. O=C(Nc1ccc(-c2nc3ccccc3[nH]2)cc1)c1ccc(Cl)c(Cl)c1

["71.3%", "-6.89%", "4.23%"]

The values you see were collected from ChEMBL document CHEMBL3301451.
